Just for reference, PubChem BioAssay (NCI) is where these values come from.

Catalogue of growth readings, one per entry.
# System: OVCAR-8 ovarian
# Assay summary: NCI-60 one-dose screen, 48 h (100 = growth as untreated, 0 = no growth, -100 = all killed)
# Condition set: 10 µM unless noted
The panel holds about 83,000 compounds, 20% with a hit somewhere; the sample as a whole holds those more often.

Compound	Unit info	growth
O=c1c2ccccc2nc(-c2ccccc2)n1/N=C/c1ccc2ccccc2c1	%	50.6
C=C1CC[C@@H]2[C@]3(C)COC(c4cn[nH]c4-c4ccccc4)O[C@@H]3CC[C@@]2(C)[C@@H]1C/C=C1/C(=O)OCC1O (stereo partly drawn)	%	33
COc1ccc(-c2nc3ccc(C(=O)NN4C(=O)c5ccc([N+](=O)[O-])cc5C4=O)cc3[nH]2)cc1	%	97.5
Cc1ccc(C(SCCNCc2cc(N(C)C)ccn2)(c2ccccc2)c2ccccc2)cc1	%	-52.5
O=C1NC(=O)/C(=C/c2ccccc2OCc2cc3ccccc3nc2Cl)S1	%	68.4
CN(C)c1nc(NCCNS(=O)(=O)c2ccc(C3=Nc4c(N)nc(N)nc4NC(c4ccc(F)cc4)C3)cc2)nc(Nc2ccc(F)cc2)n1 (stereo not drawn)	%	43.5
CCOC(=O)/C=C/c1cccc2c1C(=O)NC(C)(c1cc3cc(Br)ccc3oc1=O)N2 (stereo not drawn)	%	37.8
CCOc1ccc(-c2c(C#N)c(-c3ccc(Cl)cc3)nc3n[nH]c(-c4ccc(Cl)cc4)c23)cc1OC	%	79.3
CC(=O)OCC1OC(OC2C(COC(C)=O)OC(n3cc(COc4ccc5ccc(=O)oc5c4)nn3)C(OC(C)=O)C2OC(C)=O)C(OC(C)=O)C(OC(C)=O)C1OC(C)=O (stereo not drawn)	%	106
O=C(Nc1cccc(-n2cnc3cc(-c4ccc(O)cc4)ccc32)c1)C1CC1	%	17.9
CC(=O)Nc1ccc(-c2cn(-c3cccc(C(=O)Nc4ccc(N5CCN(C)CC5)cc4)c3)nn2)cn1	%	81.6
CCCCSc1nc(Nc2ccc(S(N)(=O)=O)cc2)c(C#N)c(-c2ccc(Cl)cc2)n1	%	-2.51
CC(=O)c1cc(C(=O)c2ccccc2)n2c1ccc1ccccc12	%	99
COc1cc(-c2cc(-c3cccc(OCC(=O)O)c3)[nH]c(=O)c2C#N)cc(OC)c1OC	%	102
OCC1(CCCc2ccccc2)CCCN(c2nccc3ccccc23)C1 (stereo not drawn)	%	23.1
CSc1ccc(NC(=O)c2ccc3nn(/C(C#N)=C/c4ccccn4)nc3c2)cc1	%	-44.2
Brc1ccc(-c2n(Cc3ccc4ccccc4c3)c(-c3ccccc3)c(-c3ccccc3)[n+]2Cc2ccc3ccccc3c2)cc1	%	-77.4
NS(=O)(=O)c1ccc(-n2cc(-c3cccc(NC(=O)c4ccc(Cl)c(C(F)(F)F)c4)c3)nn2)cc1	%	-60.8

---

Recorded growth by entry
# System: MDA-MB-435 melanoma
# Assay summary: NCI-60 one-dose screen, 48 h (100 = growth as untreated, 0 = no growth, -100 = all killed)
# Condition set: 10 µM unless noted
# Procedure: Growth inhibition of the MDA-MB-435 human Melanoma tumor cell line is measured as a screen for anti-cancer activity. Cells are grown in 96 well plates and exposed to the test compound for 48 hours. Compounds are tested at a single concentration, which is 10^-5 M for most compounds. The reported endpoint is percent growth (GI% or GIPRCNT), where numbers from 0 - 100% represent growth inhibition, and numbers from -100% - 0 represent cell death. […]
About 83,000 compounds went through this panel and 20% of them were active in at least one assay; those are over-represented in the sample as a whole. Calls of active or inactive are those of the source. Rule for the calls: active = growth percent below 10; inactive = the rest.
Readout: growth

>>> print(df.to_string())
                                    molecule  observed_measurement
 0  COc1ccc2c(c1)c(-c1cc3nc(-c4cn(C)c5ncccc45)cc(N)n3n1)cn2C       -62.4% (active)
 1  CCOC(=O)C1=C(N)N(c2ccccc2)C2=C(C(=O)CC(C)(C)C2)C1c1cccc(Cl)c1Cl (centres undefined)      87.8% (inactive)
 2     Cc1cc2nc3c4ccccc4n(CCCN(C)C)c3nc2cc1C         -93% (active)
 3  CCCCSc1nc(Nc2ccc(S(N)(=O)=O)cc2)c(C#N)c(-c2ccc(Cl)cc2)n1      56.2% (inactive)
 4  COc1cc(-c2ccc(/C=N/NC(=O)c3[nH]c4ccc(Br)cc4c3-c3ccccc3)o2)cc(OC)c1OC      90.3% (inactive)
 5  C#CCOc1ccc(/C=N/Nc2nc(-c3cc4cc(OC)ccc4oc3=O)cs2)cc1OC      63.9% (inactive)
 6  CC1(c2cc3cc(Br)ccc3oc2=O)NC(=O)c2c(/C=C/C(=O)OC3CC4CCC3(C)C4(C)C)cccc2N1 (centres undefined)      99.2% (inactive)
 7  O=C(c1ccc(OCCN2CCOCC2)cc1)C1[C@H](c2ccc(Cl)cc2)[C@@H](c2ccccc2)NC12C(=O)Nc1ccc(Cl)cc12 (some centres undefined)        42% (inactive)
 8  COc1ccc(/C=C/c2nc3ccccc3nc2Nc2cccc(C)c2)cc1      98.3% (inactive)
 9  COc1ccc(-c2ccnc(SCc3cc4cc(OC)ccc4[nH]c3=O)n2)cc1        1.18% (active)
10  CN1C(=O)/C(=C/c2ccc(C(=O)Nc3ncc(Cc4ccc(Cl)cc4Cl)s3)cc2)SC1=S       -4.21% (active)
11  C/C(=N\N=C1/C(=O)Nc2ccc(Cl)cc21)c1ccc2c(c1)Nc1ccccc1S2       -35.2% (active)
12    O=C(COc1ccc2c(c1)CCCC(=O)N2)NCc1ccccc1        3.41% (active)
13  COc1cc2c(c(OC)c1OC)C(=O)CC(c1cccc(NC(=O)[C@@H](N)CC(C)C)c1)O2 (some centres undefined)      91.2% (inactive)
14  COc1cc2oc(-c3cccc(NC(=O)[C@H](CC(N)=O)NC(=O)OC(C)(C)C)c3)cc(=O)c2c(OC)c1OC      97.2% (inactive)
15  COc1ccc(C(=O)Nc2n[nH]c(Nc3ccccc3)c2C#N)cc1       118% (inactive)
16  O=C(COc1ccc(NC(=O)Nc2ccc(Cl)c(Cl)c2)cc1)N=Nc1c(O)[nH]c2ccccc12       -63.8% (active)
17  CCN(CC)c1ccnc(CNCCSC(c2ccccc2)(c2ccccc2)c2ccc(OC)cc2)c1       -63.8% (active)
18  COc1cc(C2CC(c3cc(OC)c(OC)c(OC)c3)=NN2C(C)=O)ccc1OCc1ccccc1 (centres undefined)      44.6% (inactive)

---

# Tested on: PC-3 prostate
# Assay summary: NCI-60 one-dose screen, 48 h (100 = growth as untreated, 0 = no growth, -100 = all killed)
# Condition set: 10 µM unless noted
Compounds without any hit were thinned out: in the full panel of roughly 83,000, 20% have a hit.
The following compounds are listed with their measured growth values.
Readout: growth (%)

In [3]: df
Out[3]:
                                   compound  observed_measurement
0  COc1cc(CNC(=O)/C=C/c2ccc3c(c2)OCO3)ccc1OCc1cn(-c2cccc(C(F)(F)F)c2)nn1                 0.703
1  CNC(=O)c1cccc(NC(=O)c2ccc3c(c2)nnn3/C(C#N)=C/c2ccccn2)c1                  2.89
2  Cn1cc(-c2cc(N)n3nc(-c4c[nH]c5ccccc45)cc3n2)c2cccnc21                  5.88
3  COc1ccccc1C(=O)NN1C(=O)/C(=C/C2=Cc3ccccc3OC2)SC1=S                  91.2
4  O=C(NN1C(=O)/C(=C/C=C/c2ccc([N+](=O)[O-])o2)SC1=S)c1ccc(Cl)cc1                 -34.7
5  O=C(NNc1nc2cc(F)ccc2n2c(C(=O)N3CCN(C4CC4)CC3)ccc12)c1ncccn1                    49
6  COc1ccc(/C=C/c2nc3ccccc3c(=O)n2CC(=O)Nc2ccc(Cl)cc2)cc1                  48.3
7  COCOc1cc2oc(C(=O)N[C@@H](Cc3ccccc3)C(O)C(=O)NCc3ccccc3)c(C)c(=O)c2cc1OCOC (some centres undefined)                   101
8  CC(=O)Nc1cccc(Nc2nc(NCc3ccccc3)c3ccccc3n2)c1                 -73.2

---

# Test system: NCI-H460 lung
# Assay summary: NCI-60 one-dose screen, 48 h
# Condition set: 10 µM unless noted
# Experimental: Growth inhibition of the NCI-H460 human Non-Small Cell Lung tumor cell line is measured as a screen for anti-cancer activity. Cells are grown in 96 well plates and exposed to the test compound for 48 hours. Compounds are tested at a single concentration, which is 10^-5 M for most compounds. The reported endpoint is percent growth (GI% or GIPRCNT), where numbers from 0 - 100% represent growth inhibition, and numbers from -100% - 0 represent cell death. […]
Compounds without any hit were thinned out: in the full panel of roughly 83,000, 20% have a hit. Active and inactive are the calls of the source. How the source made its calls: active means growth percent below 10; inactive means the rest.
Classes used: y = active, n = inactive

Compound	Label
CCN(CC)c1ccc(/C=N/Nc2nc(-c3ccc(Br)cc3)cs2)c(O)c1	n
COc1cccc(-c2nc(Nc3ccc(S(N)(=O)=O)cc3)c3ccccc3n2)c1	n
CN1C(=O)/C(=C/c2ccc(C(=O)Nc3ncc(Cc4ccc(Cl)cc4Cl)s3)cc2)SC1=S	n
O=C1Nc2ccc([N+](=O)[O-])cc2C1=Nc1ccccc1	n
CN(C)c1nc(NCCNS(=O)(=O)c2ccc(C3=Nc4c(N)nc(N)nc4NC(c4ccccc4)C3)cc2)nc(Nc2ccc(F)cc2)n1 (stereo not drawn)	n
Cc1ncsc1-c1ccc(CNC(=O)[C@@H]2C[C@@H](O)CN2C(=O)[C@@H](NC(=O)C2(F)CC2)C(C)(C)C)c(OCCOCCOCCOCCOc2nc(Nc3cc(S(C)(=O)=O)ccc3N[C@@H](c3cccc4c3OC(F)(F)O4)c3ncccc3Cl)nc(N3CCNCC3)n2)c1	n
Cc1ccc(Cc2cnc(NC(=O)c3ccc(/C=C4\SC(=S)N(C)C4=O)cc3)s2)cc1	n
COc1ccc(C(=O)/C=C/c2cccc(Cl)c2Cl)cc1S(N)(=O)=O	y
